src = PubChem BioAssay AID1745844

# System: rodent lifetime carcinogenesis bioassay, tumor incidence TD50
# Experimental Protocol: carcinogenic potency in animals, long-term in vivo studies, CPDB compilation (AID 1745844)
# Study Conditions: mouse; strain B6C3F1; males; by gavage; site: lung; lesion: alveolar/bronchiolar adenoma + alveolar/bronchiolar carcinoma; dosed 104 weeks; study length 105 weeks
Each record here notes measured TD50.
Reported Property: TD50

1. OC[P+](CO)(CO)CO    78.5 mg/kg/day
2. ClC=CCCl    127 mg/kg/day
3. c1ccoc1    21.5 mg/kg/day
4. Nc1ccc(NCCO)c([N+](=O)[O-])c1    1750 mg/kg/day

* * *

# Tested on: rodent lifetime carcinogenesis bioassay, tumor incidence TD50
# Experimental Protocol: carcinogenic potency in animals, long-term in vivo studies, CPDB compilation (AID 1745844)
# Study Conditions: mouse; strain B6C3F1; males; inhaled; site: all sites; lesion: malignant lymphoma, lymphocytic type; dosed 13 weeks; study length 104 weeks
Reported Property: TD50

1) C=CC=C    66.8 mg/kg/day
